UniProtKB O43193 measurements of AC50, listed per entry.
Sequence (O43193 whole entry): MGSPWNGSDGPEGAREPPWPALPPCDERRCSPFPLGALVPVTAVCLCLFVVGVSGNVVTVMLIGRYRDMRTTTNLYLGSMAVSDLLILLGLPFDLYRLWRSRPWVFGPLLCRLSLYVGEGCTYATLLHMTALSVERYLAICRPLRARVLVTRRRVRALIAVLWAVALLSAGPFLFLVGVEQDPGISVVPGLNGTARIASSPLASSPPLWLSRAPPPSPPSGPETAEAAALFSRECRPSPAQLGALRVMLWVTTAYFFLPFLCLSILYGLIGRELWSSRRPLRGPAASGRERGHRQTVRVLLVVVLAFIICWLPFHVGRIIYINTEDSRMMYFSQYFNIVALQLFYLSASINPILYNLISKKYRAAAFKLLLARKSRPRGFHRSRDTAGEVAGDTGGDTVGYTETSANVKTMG
OBSERVED PROPERTY: AC50

INSERT INTO results (molecule, observed_property, result) VALUES
  ('C[C@]12CCC(=O)C=C1C=C[C@@H]1[C@@H]2CC[C@@]2(C)[C@H]1CC[C@@]21CCC(=O)O1', 'AC50', '> 30 µM'),
  ('CCOC(=O)Nc1ccc(NCc2ccc(F)cc2)nc1N', 'AC50', '> 30 µM'),
  ('O=C(O)c1ccc2nc(-c3cc(Cl)cc(Cl)c3)oc2c1', 'AC50', '> 30 µM'),
  ('CC(=O)SCC(Cc1ccccc1)C(=O)NCC(=O)OCc1ccccc1 (stereo not given)', 'AC50', '> 30 µM'),
  ('CCN(CC)CC(=O)Nc1c(C)cccc1C', 'AC50', '> 10 µM');

###

Observed AC50 for UniProt:P32238, reported per entry below.
Sequence (P32238 whole entry): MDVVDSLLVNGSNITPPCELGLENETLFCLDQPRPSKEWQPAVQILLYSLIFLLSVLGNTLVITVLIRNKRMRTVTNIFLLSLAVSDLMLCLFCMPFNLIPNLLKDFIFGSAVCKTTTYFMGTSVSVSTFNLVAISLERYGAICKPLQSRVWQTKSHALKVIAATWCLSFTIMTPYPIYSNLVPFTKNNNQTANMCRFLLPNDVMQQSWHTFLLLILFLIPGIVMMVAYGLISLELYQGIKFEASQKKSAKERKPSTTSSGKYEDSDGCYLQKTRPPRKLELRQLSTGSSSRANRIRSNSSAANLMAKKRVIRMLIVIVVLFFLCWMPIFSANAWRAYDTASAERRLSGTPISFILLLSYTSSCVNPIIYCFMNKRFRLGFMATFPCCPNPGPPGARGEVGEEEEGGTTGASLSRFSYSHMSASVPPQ
OBSERVED PROPERTY: AC50

INSERT INTO results (molecule, result) VALUES
  ('CC(C)(Oc1ccc(Cl)cc1)C(=O)OCCOC(=O)c1cccnc1 [ETOFIBRATE]', '> 30 µM'),
  ('O=C(O[C@H]1C[N+]2(CCCOc3ccccc3)CCC1CC2)C(O)(c1cccs1)c1cccs1 [ACLIDINIUM BROMIDE]', '> 30 µM'),
  ('CC(=O)N1CCN(c2ccc(OCC3COC(Cn4ccnc4)(c4ccc(Cl)cc4Cl)O3)cc2)CC1 (stereo not given) [KETOCONAZOLE]', '> 10 µM'),
  ('Cc1ccc(S(=O)(=O)NC(=O)N[C@H]2[C@H]3CC[C@@](C)([C@H]2O)C3(C)C)cc1 [GLIBORNURIDE]', '> 30 µM'),
  ('CNC1(C)C2CCC(C2)C1(C)C (stereo not given) [MECAMYLAMINE]', '> 10 µM'),
  ('CC(=O)[C@@]1(O)CC[C@H]2[C@@H]3C[C@H](C)C4=CC(=O)C=C[C@]4(C)[C@@]3(F)[C@@H](O)C[C@@]21C [FLUOROMETHOLONE]', '> 10 µM'),
  ('Cc1nnc2n1-c1ccc(Cl)cc1C(c1ccccc1)=NC2 [ALPRAZOLAM]', '> 30 µM'),
  ('C[C@@H](O)[C@H]1C(=O)N2C(C(=O)O)=C(SCCN=CN)C[C@H]12 [IMIPENEM ANHYDROUS]', '> 300 µM'),
  ('O=C(c1ccccc1)c1ccc2n1CCC2C(=O)O (stereo not given) [KETOROLAC]', '> 10 µM'),
  ('CN(Cc1ccc(C(C)(C)C)cc1)Cc1cccc2ccccc12 [BUTENAFINE]', '> 10 µM'),
  ('CCC[C@@]1(CCc2ccccc2)CC(O)=C([C@H](CC)c2cccc(NS(=O)(=O)c3ccc(C(F)(F)F)cn3)c2)C(=O)O1', '27 µM'),
  ('CS(=O)(=O)Nc1ccc([N+](=O)[O-])cc1Oc1ccccc1 [NIMESULIDE]', '6.2 µM'),
  ('CS(=O)(=O)NC(=O)CCC/C=C\C[C@H]1C(=O)C[C@@H](O)[C@@H]1/C=C/[C@@H](O)COc1ccccc1 [SULPROSTONE]', '> 30 µM'),
  ('CCC1(CC)C(=O)NC(=O)N(C)C1=O [METHARBITAL]', '> 10 µM'),
  ('CC1Cc2ccccc2N1NC(=O)c1ccc(Cl)c(S(N)(=O)=O)c1 (stereo not given) [INDAPAMIDE]', '> 30 µM'),
  ('CC(C)C[C@H](NC(=O)[C@H](Cc1ccccc1)NC(=O)c1cnccn1)B(O)O [BORTEZOMIB]', '> 30 µM'),
  ('CC(C)(CO)c1cc2cc(NC(=O)C3(c4ccc5c(c4)OC(F)(F)O5)CC3)c(F)cc2n1C[C@@H](O)CO [TEZACAFTOR]', '> 30 µM'),
  ('COc1cc2c(cc1OC)C1CC(=O)C(CC(C)C)CN1CC2 (stereo not given) [TETRABENAZINE]', '> 30 µM'),
  ('COC(=O)[C@H]1[C@H]2C[C@@H]3c4[nH]c5ccccc5c4CCN3C[C@H]2C[C@@H](OC(=O)c2cc(OC)c(OC)c(OC)c2)[C@@H]1OC [DESERPIDINE]', '34.4 µM'),
  ('C[C@@H](Cc1ccccc1)N(C)Cc1ccccc1 [BENZPHETAMINE]', '> 10 µM'),
  ('CCN(CC)CCn1c(=O)c(Cc2ccc(OC)cc2)nc2ccccc21 [CAROVERINE]', '> 30 µM'),
  ('O=C(O)c1nn(Cc2ccc(Cl)cc2Cl)c2ccccc12 [LONIDAMINE]', '> 30 µM'),
  ('NS(=O)(=O)c1ccc(N2CCCCS2(=O)=O)cc1', '> 30 µM'),
  ('CC(C(=O)O)c1ccc(C(=O)c2ccccc2)s1 (stereo not given) [TIAPROFENIC ACID]', '> 10 µM'),
  ('CC(C)CN(C[C@@H](O)[C@H](Cc1ccccc1)NC(=O)O[C@H]1CCOC1)S(=O)(=O)c1ccc(N)cc1', '> 30 µM'),
  ('Oc1cc(O)c2c(c1)O[C@H](c1ccc(O)c(O)c1)[C@@H](O)C2 [CIANIDANOL]', '> 30 µM'),
  ('O=C(C[S+]([O-])Cc1ccco1)NC/C=C\COc1cc(CN2CCCCC2)ccn1 (stereo not given) [LAFUTIDINE]', '> 10 µM'),
  ('N=C(N)NC(=O)c1nc(Cl)c(N)nc1N [AMILORIDE]', '> 30 µM'),
  ('O=C(O)c1ccc2nc(-c3cc(Cl)cc(Cl)c3)oc2c1', '> 30 µM'),
  ('COc1cccc2c1C(=O)c1c(O)c3c(c(O)c1C2=O)C[C@@](O)(C(=O)CO)C[C@@H]3O[C@H]1C[C@H](N)[C@H](O)[C@H](C)O1 [DOXORUBICIN]', '> 30 µM'),
  ('OCC(CO)N[C@H]1C[C@](O)(CO)[C@@H](O)[C@H](O)[C@H]1O [VOGLIBOSE]', '> 30 µM'),
  ('O=C(O)COC(=O)Cc1ccccc1Nc1c(Cl)cccc1Cl [ACECLOFENAC]', '> 30 µM'),
  ('CCOCC(O)COc1ccc(NC(=O)CC[S+](C)C)cc1 (stereo not given)', '> 30 µM'),
  ('CCOC(=O)Nc1ccc(NCc2ccc(F)cc2)nc1N [FLUPIRTINE]', '> 30 µM'),
  ('CC(C)/N=c1\cc2n(-c3ccc(Cl)cc3)c3ccccc3nc-2cc1Nc1ccc(Cl)cc1 [CLOFAZIMINE]', '> 30 µM');
